These measurements were taken from patent US9557338B2.

system: Akt(S473); test: Inhibition of Akt(S473) phosphorylation in cell lines; format: cell-based; details: NCI-H23; read-out: p-Akt (S473)
Metric name: IC50 (nM)
Write the number in nM without appending the unit.

Lab note: measured IC50 of CO[C@H]1CC[C@H](N2C(=O)CNc3ncc(-c4ccc(C(C)(C)O)nc4)nc32)CC1 was 100

* * *

test system: Akt(S473); assay: Inhibition of Akt(S473) phosphorylation in cell lines; format: cell-based; details: U-87 MG; read-out: p-Akt (S473)
Metric name: IC50
Number first, unit second.

Note to self: IC50 recorded for CO[C@H]1CC[C@H](N2C(=O)CNc3ncc(-c4ccc(C(C)(C)O)nc4)nc32)CC1 [Compound 1] was 150 nM
